Each item that follows carries a reported relative cell viability.
Test system: HL-1
Experiment: relative cell viability (CellTiter-Glo) vs DMSO control (% of DMSO control); higher = more viable cells
Settings: oxygen condition: normoxia 72 h; 1000 nM
Structures can show the parent of a compound that is named as a salt.

Illustrative cases are given below, each with its answer.
INSERT INTO results (compound, test_result) VALUES
  ('CC1(C)S[C@@H]2[C@H](NC(=O)[C@H](NC(=O)N3CCNC3=O)c3ccccc3)C(=O)N2[C@H]1C(=O)O [Azlocillin sodium salt]', 112),
  ('O=C1O[C@H]([C@@H](O)CO)C([O-])=C1O.[Na+] [Sodium ascorbate]', 102),
  ('CO[C@H]1C[C@@H]2CC[C@@H](C)[C@@](O)(O2)C(=O)C(=O)N2CCCC[C@H]2C(=O)O[C@H]([C@H](C)C[C@@H]2CC[C@@H](OCCO)[C@H](OC)C2)CC(=O)[C@H](C)/C=C(\C)[C@@H](O)[C@@H](OC)C(=O)[C@H](C)C[C@H](C)/C=C/C=C/C=C/1C [Everolimus]', 66.5);

Kindly note the recorded relative cell viability for CCc1c2c(nc3ccc(OC(=O)N4CCC(N5CCCCC5)CC4)cc13)-c1cc3c(c(=O)n1C2)COC(=O)[C@]3(O)CC [Irinotecan HCl Trihydrate] , which is 62.5

Kindly note the recorded relative cell viability for C[C@@H](NCCCc1cccc(C(F)(F)F)c1)c1cccc2ccccc12 , which is 109

Kindly note the recorded relative cell viability for O=C(c1ccccc1)c1ccc2n1CCC2C(=O)O (stereo unspecified) [Ketorolac] , which is 103

###

Each item that follows carries a reported relative cell viability.
System: HL-1
Experiment: relative cell viability (CellTiter-Glo) vs DMSO control (% of DMSO control); higher = more viable cells
Settings: oxygen condition: normoxia 72 h; 5000 nM
Counter-ions that a name gives are not always drawn.
Provide a numeric answer; units are not to be included.

INSERT INTO results (compound, test_result) VALUES
  ('Cc1ccc(Nc2nccc(N(C)c3ccc4c(C)n(C)nc4c3)n2)cc1S(N)(=O)=O', 110),
  ('NC12CC3CC(CC(C3)C1)C2 [Amantadine hydrochloride]', 84.9);

Kindly note the recorded relative cell viability for Cc1cccc(Nc2ccccc2C(=O)O)c1C , which is 110

Kindly note the recorded relative cell viability for CC(=O)OCC(=O)[C@@]12OC(C)(C)O[C@@H]1C[C@H]1[C@@H]3C[C@H](F)C4=CC(=O)C=C[C@]4(C)[C@@]3(F)[C@@H](O)C[C@@]12C [Fluocinonide] , which is 91.2

Kindly note the recorded relative cell viability for CC1CCc2c(N3CCC(O)CC3)c(F)cc3c(=O)c(C(=O)O)cn1c23 (configuration not stated) , which is 107

Kindly note the recorded relative cell viability for CN[C@H](CC(C)C)C(=O)N[C@H]1C(=O)N[C@@H](CC(N)=O)C(=O)N[C@H]2C(=O)N[C@H]3C(=O)N[C@H](C(=O)N[C@H](C(=O)O)c4cc(O)cc(O)c4-c4cc3ccc4O)[C@H](O)c3ccc(c(Cl)c3)Oc3cc2cc(c3O[C@@H]2O[C@H](CO)[C@@H](O)[C@H](O)[C@H]2O[C@H]2C[C@](C)(N)[C@H](O)[C@H](C)O2)Oc2ccc(cc2Cl)[C@H]1O [Vancomycin HCl] , which is 113

Kindly note the recorded relative cell viability for CC1=C(CC(=O)O)c2cc(F)ccc2/C1=C\c1ccc([S+](C)[O-])cc1 (configuration not stated) , which is 113

Kindly note the recorded relative cell viability for C[N+](C)(C)CCCCCC[N+](C)(C)C [Hexamethonium bromide] , which is 103

Kindly note the recorded relative cell viability for CC1(C)O[C@@H]2[C@@H](CO[C@@]3(COS(N)(=O)=O)OC(C)(C)O[C@@H]23)O1 [Topiramate] , which is 98.8

Kindly note the recorded relative cell viability for C#Cc1cccc(Nc2ncnc3cc(OCCOC)c(OCCOC)cc23)c1 [Erlotinib HCl] , which is 113

These measurements were taken from the supplement of paper PMC8371130.
